# credit: patent US10052306B2

Below is a list of entries, each paired with its recorded pIC50 value.
target: NR1/NR2B (Homo sapiens (Human)); assay: Cell assay: FDSS Ca2+ influx inhibition in HEK293 cells expressing NR1/NR2B; conditions: read-out: NR2B NAM IC50; HEK293 cells expressing NR1/NR2B, Ca2+ influx
For clarity, pIC50 is expressed as the negative log10 of concentration in mol/L.

# annotated cases, reported pIC50 shown
O=C1Cc2cc(C(=O)CN3C[C@@H]4C[C@@](O)(Cc5ccccc5)C[C@@H]4C3)ccc2N1 [Example 147]	6.45
O=C(Nc1ccc(F)cc1)N1C[C@H]2C[C@@H](c3ccccc3)C[C@H]2C1 [Example 101]	5.00
Oc1ccc([C@H](O)CN2C[C@@H]3C[C@@](O)(Cc4ccc(F)cc4)C[C@@H]3C2)nc1 [Example 256]	7.50
O=C(CN1C[C@@H]2C[C@@](O)(Cc3ccccc3)C[C@@H]2C1)c1ccc(-c2ccccn2)cc1 [Example 266]	5.00
O=C(Nc1ccc(F)cc1F)N1C[C@@H]2C[C@@](O)(c3ccccc3)C[C@@H]2C1 [Example 19]	5.00

IN: Look at this compound and give its reported pIC50. COc1cccc([C@]2(O)C[C@H]3CN(C(=O)Nc4ccccc4)C[C@H]3C2)c1 [Example 29]
OUT: 5.00

IN: Data request, read-out pIC50, for Cc1ccc(NC(=O)N2C[C@@H]3C[C@@](O)(Cc4ccccc4)C[C@@H]3C2)c(C)c1 [Example 121]
OUT: 5.00

###

Below, each of the compounds is paired with its reported pIC50 value.
biological target: NR1/NR2B (Homo sapiens (Human), UniProt Q05586+Q13224); assay: Cell assay: FDSS Ca2+ influx inhibition in HEK293 cells expressing NR1/NR2B; settings: Binned Activity, HEK293 cells expressing NR1/NR2B, Ca2+ influx; binned NR2B NAM IC50
Sequence (Q13224 27-1484, other chains not shown): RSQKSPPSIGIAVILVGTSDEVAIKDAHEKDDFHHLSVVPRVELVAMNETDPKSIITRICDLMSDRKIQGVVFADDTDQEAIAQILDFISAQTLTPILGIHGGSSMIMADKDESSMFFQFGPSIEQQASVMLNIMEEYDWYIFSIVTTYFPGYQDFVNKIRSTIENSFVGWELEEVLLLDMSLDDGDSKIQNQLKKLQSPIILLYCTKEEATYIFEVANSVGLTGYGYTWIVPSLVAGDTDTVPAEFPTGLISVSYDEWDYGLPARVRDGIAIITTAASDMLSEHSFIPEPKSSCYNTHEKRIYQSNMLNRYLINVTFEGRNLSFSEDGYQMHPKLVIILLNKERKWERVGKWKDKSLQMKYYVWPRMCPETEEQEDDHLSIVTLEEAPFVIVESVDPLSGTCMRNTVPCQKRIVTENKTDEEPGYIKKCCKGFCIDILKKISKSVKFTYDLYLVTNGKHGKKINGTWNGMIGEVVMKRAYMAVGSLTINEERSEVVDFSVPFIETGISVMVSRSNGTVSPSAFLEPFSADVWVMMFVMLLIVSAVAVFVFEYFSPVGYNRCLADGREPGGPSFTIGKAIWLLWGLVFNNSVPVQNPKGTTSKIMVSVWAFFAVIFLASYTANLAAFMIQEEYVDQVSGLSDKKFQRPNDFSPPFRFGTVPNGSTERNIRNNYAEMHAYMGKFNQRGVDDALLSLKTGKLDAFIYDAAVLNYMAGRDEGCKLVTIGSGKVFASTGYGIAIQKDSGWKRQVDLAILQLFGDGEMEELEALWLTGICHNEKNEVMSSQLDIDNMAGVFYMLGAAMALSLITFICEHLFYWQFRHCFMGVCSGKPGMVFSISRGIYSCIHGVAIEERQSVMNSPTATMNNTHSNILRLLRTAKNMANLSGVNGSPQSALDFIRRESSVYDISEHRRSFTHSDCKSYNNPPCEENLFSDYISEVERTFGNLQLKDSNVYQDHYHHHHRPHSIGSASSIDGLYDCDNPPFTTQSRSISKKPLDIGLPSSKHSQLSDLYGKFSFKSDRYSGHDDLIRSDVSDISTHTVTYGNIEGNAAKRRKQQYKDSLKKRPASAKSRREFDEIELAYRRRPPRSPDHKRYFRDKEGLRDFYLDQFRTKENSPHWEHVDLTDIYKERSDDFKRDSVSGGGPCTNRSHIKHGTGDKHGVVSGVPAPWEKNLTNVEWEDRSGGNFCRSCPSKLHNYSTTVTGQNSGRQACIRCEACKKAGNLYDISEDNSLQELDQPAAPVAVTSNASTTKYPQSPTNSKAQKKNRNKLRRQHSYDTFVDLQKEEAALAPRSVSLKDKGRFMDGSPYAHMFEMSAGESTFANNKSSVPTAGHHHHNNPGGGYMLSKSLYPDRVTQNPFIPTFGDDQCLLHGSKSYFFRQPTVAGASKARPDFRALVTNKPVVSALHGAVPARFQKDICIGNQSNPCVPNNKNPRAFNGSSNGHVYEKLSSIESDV
pIC50: −log10 of the molar value.

Recorded pIC50, per entry:
O=C(CN1C[C@@H]2C[C@@](O)(Cc3ccc(F)cc3)C[C@@H]2C1)c1ccc(O)cn1	5.00 to 6.00
O=C(CN1C[C@@H]2C[C@@](O)(Cc3c(F)cccc3F)C[C@@H]2C1)c1ccc(O)cc1	6.00 to 7.00

IN: State the recorded pIC50 for this entry: COc1cccc([C@]2(O)C[C@H]3CN(CC(O)c4cccc(F)c4)C[C@H]3C2)c1 (mixture of isomers)
OUT: < 5.00

IN: Report pIC50 for `O=C1Cc2cc(C(=O)CN3C[C@@H]4C[C@@](O)(Cc5ccccc5)C[C@@H]4C3)ccc2N1` please.
OUT: 6.00 to 7.00

IN: Return reported pIC50; argument: `Cc1ccccc1[C@]1(O)C[C@H]2CN(C(=O)Nc3ccc(Cl)c(C(F)(F)F)c3)C[C@H]2C1`
OUT: < 5.00

IN: Any idea what pIC50 was measured for `COc1ccc(NC(=O)N2C[C@@H]3C[C@@](O)(c4cccc(OC)c4)C[C@@H]3C2)cc1` ?
OUT: < 5.00

IN: # query: pIC50 of entry OC(CN1C[C@H]2CC(Cc3ccccc3)C[C@H]2C1)c1cccc(C(F)(F)F)c1 (mixture of isomers)
OUT: < 5.00

###

Measured IC50 values are reported for all entries that follow.
target: NR1/NR2B (Homo sapiens (Human), UniProt Q05586+Q13224); experiment: Cell assay: FDSS Ca2+ influx inhibition in HEK293 cells expressing NR1/NR2B; settings: NR2B NAM IC50, HEK293 cells expressing NR1/NR2B, Ca2+ influx
Only the number, expressed in nM, is required.

Oc1ccc(C(O)CN2C[C@@H]3C[C@@](O)(Cc4ccccn4)C[C@@H]3C2)cc1 (mixture of isomers)	669

IN: For the compound shown here, O=C1Cc2cc(C(O)CN3C[C@@H]4C[C@@](O)(Cc5ccccc5)C[C@@H]4C3)ccc2N1 (mixture of isomers) , give the reported IC50.
OUT: 143

###

target: NR1/NR2B (Homo sapiens (Human), UniProt Q05586+Q13224); assay: Cell assay: FDSS Ca2+ influx inhibition in HEK293 cells expressing NR1/NR2B; conditions: Binned Activity, HEK293 cells expressing NR1/NR2B, Ca2+ influx; binned NR2B NAM IC50
measurement.label: IC50

Illustrative cases are given below, each with its answer.
CC(C(=O)c1ccc(O)cc1)N1C[C@H]2CC(Cc3ccccc3)C[C@H]2C1 (mixture of isomers) [Example 296]	100 to 1000 nM
COc1ccc(C[C@]2(O)C[C@H]3CN(CC(=O)c4ccc(O)cc4)C[C@H]3C2)cc1 [Example 184]	< 100 nM

IN: What value of IC50 on NR1/NR2B (Homo sapiens (Human), UniProt Q05586+Q13224) does O=C(CN1C[C@@H]2C[C@@](O)(Cc3ccccc3)C[C@@H]2C1)c1ccc(-c2ccc(O)cc2)cc1 [Example 257] have?
OUT: > 10000 nM

IN: API: value(readout= IC50, system= NR1/NR2B (Homo sapiens (Human), UniProt Q05586+Q13224), query= COc1cccc(NC(=O)N2C[C@@H]3C[C@@](O)(c4ccccc4)C[C@@H]3C2)c1 [Example 7] )
OUT: > 10000 nM

###

pIC50 by entry:
target: NR1/NR2B (Homo sapiens (Human), UniProt Q05586+Q13224); assay: Cell assay: FDSS Ca2+ influx inhibition in HEK293 cells expressing NR1/NR2B; details: Binned Activity, HEK293 cells expressing NR1/NR2B, Ca2+ influx; binned NR2B NAM IC50
pIC50: −log10 of the molar value.

// solved cases for pIC50 follow
O=C(CN1C[C@@H]2C[C@@](O)(Cc3ccc(F)cc3)C[C@@H]2C1)c1ccc(O)c(F)c1 [Example 169]	6.00 to 7.00
O=C(Nc1ccc(Cl)c(C(F)(F)F)c1)N1C[C@H]2C[C@@H](c3ccccc3)C[C@H]2C1 [Example 108]	< 5.00
O[C@@]1(c2ccc(F)cc2)C[C@H]2CN(c3cccc(C(F)(F)F)n3)C[C@H]2C1 [Example 81]	< 5.00

Moving on to another compound below.
IN: Quick check: pIC50 of Oc1ccc([C@H](O)CN2C[C@@H]3C[C@@](O)(Cc4ccccc4)C[C@@H]3C2)nc1 [Example 165] ?
OUT: > 7.00

###

Entries and their measured IC50 follow.
molecular target: NR1/NR2B (Homo sapiens (Human), UniProt Q05586+Q13224); experiment: Cell assay: FDSS Ca2+ influx inhibition in HEK293 cells expressing NR1/NR2B; conditions: NR2B NAM IC50, HEK293 cells expressing NR1/NR2B, Ca2+ influx

Example cases with answers are listed next.
OC(CN1C[C@@H]2C[C@@](O)(Cc3ccccc3)C[C@@H]2C1)c1ccc2[nH]nnc2c1 (mixture of isomers) [Example 186]	748 nM
Oc1ccc(C(O)CN2C[C@@H]3C[C@@](O)(c4ccccc4)C[C@@H]3C2)cc1 (mixture of isomers) [Example 67]	≥ 10000 nM
OC(CN1C[C@H]2CC(Cc3ccccc3)C[C@H]2C1)c1cccc(C(F)(F)F)c1 (mixture of isomers) [Example 309]	≥ 10000 nM

Could you now look at the following compound, please?
IN: Any idea what IC50 came out for Oc1ccc(C(O)CN2C[C@H]3C[C@@H](Cc4ccccc4)C[C@H]3C2)cc1 (mixture of isomers) [Example 304] on NR1/NR2B (Homo sapiens (Human), UniProt Q05586+Q13224)?
OUT: 16.8 nM

###

target: NR1/NR2B (Homo sapiens (Human), UniProt Q05586+Q13224); assay: Cell assay: FDSS Ca2+ influx inhibition in HEK293 cells expressing NR1/NR2B; conditions: NR2B NAM IC50, HEK293 cells expressing NR1/NR2B, Ca2+ influx
Mark each entry y if its IC50 sits below 30 nM, and n for all others.

CC(=O)Nc1ccc(C(O)CN2C[C@@H]3C[C@@](O)(Cc4ccccc4)C[C@@H]3C2)cn1 (mixture of isomers) [Example 283]	n
CC(C(=O)c1ccc(O)cc1)N1C[C@@H]2C[C@@](O)(Cc3ccccc3)C[C@@H]2C1 (mixture of isomers) [Example 293]	n
Oc1ccc(C(O)CN2C[C@@H]3C[C@@](O)(Cc4ccc(F)cc4)C[C@@H]3C2)cc1 (mixture of isomers) [Example 135]	y

Moving on to the next compound.
IN: Lab note: IC50 threshold 30 nM. Does this compound come in strictly under it? COc1cccc([C@]2(O)C[C@H]3CN(CC(O)c4cccc(F)c4)C[C@H]3C2)c1 (mixture of isomers) [Example 63]
OUT: n

###

Catalogue of compounds with associated IC50
target: NR1/NR2B (Homo sapiens (Human)); assay: Cell assay: FDSS Ca2+ influx inhibition in HEK293 cells expressing NR1/NR2B; conditions: read-out: NR2B NAM IC50; HEK293 cells expressing NR1/NR2B, Ca2+ influx;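 also: Fluo-8 Ca2+ signal read on Hamamatsu FDSS 6000 after glutamate, glycine and Ca2+ challenge following 10 min compound preincubation, end/baseline fluorescence ratio compared with MK801 control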
Please state the figure in µM; there is no need to write the unit.

O=C(Nc1ccccc1)N1C[C@@H]2C[C@@](O)(Cc3ccccc3)C[C@@H]2C1	10
O=C(CN1C[C@@H]2C[C@@](O)(Cc3ccccc3)C[C@@H]2C1)c1ccc(O)nc1	10
COc1cccc(-c2ccc(C(=O)CN3C[C@@H]4C[C@@](O)(Cc5ccccc5)C[C@@H]4C3)cc2)c1	10

Attention now turns to another entry.
IN: Provide the documented IC50 with NR1/NR2B (Homo sapiens (Human)) as the system for `O=C(CN1C[C@@H]2C[C@@](O)(Cc3cccc(F)c3F)C[C@@H]2C1)c1ccc(O)cc1`
OUT: 0.11
